Values were extracted from paper PMC10397247.

- targetUnderTest: T1, P6-AA-1HAA-R
- T1 chain: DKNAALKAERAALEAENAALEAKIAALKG
- assayNotes: two-hybrid library CCmax;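 further: natural log of median RNA to DNA barcode read ratio; higher means stronger binding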
- cond: mean of both orientations
Short version: interaction score at least 0.3 is criterion met, less is criterion not met.

DENAALEAKTAALKAKNAALKAEIAALEG [P5-AA-1HAA-T]: criterion met
DENAALEAKRAALKAKNAALKAEIAALEG [P5-AA-1HAA-R]: criterion not met
DENAALEAKAAALKAKNAALKAEIAALEG [P5-AA-1HAA-A]: criterion not met
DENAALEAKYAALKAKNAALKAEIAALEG [P5-AA-1HAA-Y]: criterion not met
DENAALEAKEAALKAKNAALKAEIAALEG [P5-AA-1HAA-E]: criterion not met
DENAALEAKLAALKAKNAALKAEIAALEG [P5-AA-1HAA-L]: criterion met
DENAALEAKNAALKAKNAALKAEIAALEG [P5-AA-1HAA-N]: criterion met
DENAALEAKHAALKAKNAALKAEIAALEG [P5-AA-1HAA-H]: criterion not met
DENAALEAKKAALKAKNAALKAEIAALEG [P5-AA-1HAA-K]: criterion not met
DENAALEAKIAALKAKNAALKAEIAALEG [4H1401-AA]: criterion met
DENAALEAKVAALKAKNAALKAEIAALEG [P5-AA-1HAA-V]: criterion met
DENAALEAKDAALKAKNAALKAEIAALEG [P5-AA-1HAA-D]: criterion not met
DENAALEAKSAALKAKNAALKAEIAALEG [P5-AA-1HAA-S]: criterion not met
